- Target or test system: SMYD3 (Homo sapiens (Human))
- Assay comment: SMYD3 biochemical assay (SPA, 3H-SAM methylation of MEKK2 protein substrate)
- Cond: read-out: SMYD3 Biochem IC50*
I'd appreciate it if you marked entries label 1 when IC50 is lower than 20 nM and label 0 when it is not.

Sample answers from the record:
CN1CCCC[C@@H]1CS(=O)(=O)N1[C@@H]2CC[C@H]1C[C@@H](NC(=O)c1cc(C3CC3)on1)C2: label 0
C[C@@H](NC1CCN(S(=O)(=O)N2[C@@H]3CC[C@H]2C[C@@H](NC(=O)c2cc(C4CC4)on2)C3)CC1)c1ccc(F)cc1: label 0
C[C@H]1C[C@@H](NC(=O)c2cc(C3CC3)on2)CCN1S(=O)(=O)N1CCC2(CCN2)CC1: label 1
CCN1C2CCC1CN(S(=O)(=O)N1[C@@H]3CC[C@H]1C[C@@H](NC(=O)c1cc(C4CC4)on1)C3)C2: label 1
C[C@H]1CN(S(=O)(=O)[C@H]2CC[C@@H](N)CC2)CC[C@H]1NC(=O)c1cc(C2CC2)on1: label 1

Query block: For `C[C@H]1C[C@@H](NC(=O)c2cc(C3CC3)on2)CCN1S(=O)(=O)N1C[C@H]2CC[C@@H](C1)[C@@H]2N` , is the recorded IC50 below the cut-off of 20 nM?
Result block: label 0

Query block: Does the reported IC50 of the following molecule sit strictly below 20 nM? `CN1CCC[C@H](S(=O)(=O)N2[C@@H]3CC[C@H]2C[C@@H](NC(=O)c2cc(C4CC4)on2)C3)C1`
Result block: label 0
